The compounds listed here are annotated with their Cell viability in kinase inhibitor library screening, IGR37 GP, 1μΜ.
Tested on: IGR37-GP cells (Dabrafenib-resistant)
Measurement notes: Kinase inhibitor library screening, PrestoBlue cell viability, 1 or 10 μM, 72 h
Details: IGR37 GP; 1μΜ; 72 h; in %
Note: the reply should be a number with no unit written.

Study these solved cases before continuing.
CC(C)(C)Cn1c(N)nc2ccc(-c3[nH]c(C(C)(C)C)nc3-c3ccc(F)cc3)nc21	90.6
COc1ccc(Cl)c(Nc2nc3ccccc3nc2NS(=O)(=O)c2cccc(NC(=O)C(C)(C)N)c2)c1	103.8
Cc1ccc(-n2nc(C(C)(C)C)cc2NC(=O)Nc2ccc(OCCN3CCOCC3)c3ccccc23)cc1	89.9
COc1ccc2c(c1OC)N=C(NC(=O)c1cccnc1)N1CCN=C21	89.1
NC(=O)c1ccc(N(C(N)=O)c2c(F)cccc2F)nc1-c1ccc(F)cc1F	98.3

Any idea what Cell viability in kinase inhibitor library screening, IGR37 GP, 1μΜ came out for Cn1cc(C2=C(c3cn(C4CCN(Cc5ccccn5)CC4)c4ccccc34)C(=O)NC2=O)c2ccccc21 on IGR37-GP cells (Dabrafenib-resistant)? 100.0

Any idea what Cell viability in kinase inhibitor library screening, IGR37 GP, 1μΜ came out for COc1ccc(-c2ccc3c(N4CCOC[C@@H]4C)nc(N4CCOC[C@@H]4C)nc3n2)cc1CO on IGR37-GP cells (Dabrafenib-resistant)? 45.1

Any idea what Cell viability in kinase inhibitor library screening, IGR37 GP, 1μΜ came out for Cc1nc(NC(=O)N2CCC[C@H]2C(N)=O)sc1-c1csc(C(C)(C)C)n1 on IGR37-GP cells (Dabrafenib-resistant)? 91.2

Any idea what Cell viability in kinase inhibitor library screening, IGR37 GP, 1μΜ came out for Cc1ccc(NC(=O)c2cccc(C(C)(C)C#N)c2)cc1Nc1ccc2ncn(C)c(=O)c2c1 on IGR37-GP cells (Dabrafenib-resistant)? 78.8

Any idea what Cell viability in kinase inhibitor library screening, IGR37 GP, 1μΜ came out for Cc1c(CN2CCN(C(=O)[C@H](C)O)CC2)sc2c(N3CCOCC3)nc(-c3cnc(N)nc3)nc12 [GDC-0980 (RG7422)] on IGR37-GP cells (Dabrafenib-resistant)? 58.6

Any idea what Cell viability in kinase inhibitor library screening, IGR37 GP, 1μΜ came out for FC(F)c1nc2ccccc2n1-c1nc(N2CCOCC2)nc(N2CCOCC2)n1 on IGR37-GP cells (Dabrafenib-resistant)? 80.3

###

Test system: IGR37 cells (parental)
Measurement notes: Kinase inhibitor library screening, PrestoBlue cell viability, 1 or 10 μM, 72 h
Details: IGR37 Parental; 1μΜ; 72 h; in %
The compounds listed here are annotated with their Cell viability in kinase inhibitor library screening, IGR37 Parental, 1μΜ.
Note: the reply should be a number with no unit written.

COc1ccc(-c2cc3c(C)nc(N)nc3n([C@H]3CC[C@H](OCCO)CC3)c2=O)cn1 [PF-04691502, reference compound]	38.6

Cell viability in kinase inhibitor library screening, IGR37 Parental, 1μΜ lookup needed for CC(C)n1nc(-c2ccc3oc(N)nc3c2)c2c(N)ncnc21 [INK 128] , thanks. 22.4

Cell viability in kinase inhibitor library screening, IGR37 Parental, 1μΜ lookup needed for Cc1ccccc1-n1c(Cn2ncc3c(N)ncnc32)nc2cccc(C)c2c1=O [PIK-293] , thanks. 105.2

Cell viability in kinase inhibitor library screening, IGR37 Parental, 1μΜ lookup needed for Cc1ccc([N+](=O)[O-])cc1S(=O)(=O)N(C)/N=C/c1cnc2ccc(Br)cn12 [PIK-75, reference compound] , thanks. 1.2

Cell viability in kinase inhibitor library screening, IGR37 Parental, 1μΜ lookup needed for CO[C@H]1C[C@@H]2CC[C@@H](C)[C@@](O)(O2)C(=O)C(=O)N2CCCC[C@H]2C(=O)O[C@H]([C@H](C)C[C@@H]2CC[C@@H](OP(C)(C)=O)[C@H](OC)C2)CC(=O)[C@H](C)/C=C(\C)[C@@H](O)[C@@H](OC)C(=O)[C@H](C)C[C@H](C)/C=C/C=C/C=C/1C [Deforolimus (Ridaforolimus)] , thanks. 82.2

###

The compounds listed here are annotated with their cell viability, 501Mel XP, 1μΜ.
Test system: 501Mel-XP cells (Vemurafenib-resistant)
Measurement notes: Kinase inhibitor library screening, PrestoBlue cell viability, 1 or 10 μM, 72 h
Details: 501Mel XP; 1μΜ; 72 h; in %
Note: the reply should be a number with no unit written.

Study these solved cases before continuing.
CC(=O)Nc1cccc(-n2c(=O)n(C3CC3)c(=O)c3c(Nc4ccc(I)cc4F)n(C)c(=O)c(C)c32)c1 [GSK1120212 (Trametinib)]	75.6
N#C/C(=C\c1ccc(O)c(O)c1)C(=O)NCc1ccccc1 [AG-490]	93.1
Cc1cnc(Nc2ccc(OCCN3CCCC3)cc2)nc1Nc1cccc(S(=O)(=O)NC(C)(C)C)c1 [TG101348 (SAR302503)]	89.8

cell viability, 501Mel XP, 1μΜ lookup needed for C=CC(=O)Nc1cc2c(Nc3ccc(F)c(Cl)c3)ncnc2cc1OCCCN1CCOCC1 [CI-1033 (Canertinib)] , thanks. 93.9

cell viability, 501Mel XP, 1μΜ lookup needed for CCC[C@H](NC(=O)/C(C#N)=C/c1cccc(Br)n1)c1ccccc1 [WP1130, reference compound] , thanks. 103.9

cell viability, 501Mel XP, 1μΜ lookup needed for Cc1cnc(Nc2ccc(N3CCN(C)CC3)cc2)nc1Nc1cccc(S(=O)(=O)NC(C)(C)C)c1 [TG101209] , thanks. 85.2

cell viability, 501Mel XP, 1μΜ lookup needed for CN(c1ncccc1CNc1nc(Nc2ccc3c(c2)CC(=O)N3)ncc1C(F)(F)F)S(C)(=O)=O [PF-00562271] , thanks. 94.1

cell viability, 501Mel XP, 1μΜ lookup needed for COc1cc2ncnc(Nc3cccc(Br)c3)c2cc1OC.Cl [PD153035 HCl] , thanks. 99.4

cell viability, 501Mel XP, 1μΜ lookup needed for CCOc1cc2ncc(C#N)c(Nc3ccc(OCc4ccccn4)c(Cl)c3)c2cc1NC(=O)/C=C/CN(C)C [Neratinib (HKI-272)] , thanks. 85.2

cell viability, 501Mel XP, 1μΜ lookup needed for Nc1cccc(-c2cc3c(Oc4cccc(O)c4)ncnc3[nH]2)c1 [TWS119] , thanks. 95.3

cell viability, 501Mel XP, 1μΜ lookup needed for CN1CCN(c2cccc(Nc3nc4c(-c5ccc(S(C)(=O)=O)cc5)cccn4n3)c2)CC1 [CEP33779] , thanks. 88.8

cell viability, 501Mel XP, 1μΜ lookup needed for CCc1cc(Nc2nccc(-c3c(-c4ccc(OC)c(C(=O)Nc5c(F)cccc5F)c4)nc4ccccn34)n2)c(OC)cc1N1CCC(N2CCN(S(C)(=O)=O)CC2)CC1 [GSK1904529A] , thanks. 93.0

cell viability, 501Mel XP, 1μΜ lookup needed for CNC(=O)c1ccccc1Nc1nc(Nc2ccc(N3CCOCC3)cc2OC)ncc1Cl [NVP-TAE226] , thanks. 67.5

cell viability, 501Mel XP, 1μΜ lookup needed for C=CC(=O)Nc1cccc(Oc2nc(Nc3ccc(N4CCN(C)CC4)cc3)ncc2Cl)c1 [WZ3146] , thanks. 78.6

###

Tested on: IGR37 cells (parental)
Measurement notes: Kinase inhibitor library screening, PrestoBlue cell viability, 1 or 10 μM, 72 h
Details: IGR37 Parental; 1μΜ; 72 h; in %
Field: label. Allowed values: t (Cell viability in kinase inhibitor library screening, IGR37 Parental, 1μΜ < 40) or f (Cell viability in kinase inhibitor library screening, IGR37 Parental, 1μΜ >= 40).

// below: answered molecules
Cc1c(CN2CCN(C(=O)[C@H](C)O)CC2)sc2c(N3CCOCC3)nc(-c3cnc(N)nc3)nc12 [GDC-0980 (RG7422)]	t
COc1cc(OC)c(/C=C/S(=O)(=O)Cc2ccc(OC)c(NCC(=O)O)c2)c(OC)c1	t
Cc1cc(C(C)Nc2ccccc2)c2nc(N3CCOCC3)cc(=O)n2c1 (centres unmarked)	f

Does C[C@@H](Oc1cc(-n2cnc3ccc(CN4CCN(C)CC4)cc32)sc1C(N)=O)c1ccccc1C(F)(F)F have Cell viability in kinase inhibitor library screening, IGR37 Parental, 1μΜ strictly under 40? t

Does CN1CCN(c2nc(C3=C(c4c[nH]c5ccccc45)C(=O)NC3=O)c3ccccc3n2)CC1 have Cell viability in kinase inhibitor library screening, IGR37 Parental, 1μΜ strictly under 40? f

###

The compounds listed here are annotated with their cell viability, 501Mel XP, 1μΜ.
Test system: 501Mel-XP cells (Vemurafenib-resistant)
Measurement notes: Kinase inhibitor library screening, PrestoBlue cell viability, 1 or 10 μM, 72 h
Details: 501Mel XP; 1μΜ; 72 h; in %
Note: the reply should be a number with no unit written.

Study these solved cases before continuing.
CC(C)(C)c1cc(C=C(C#N)C#N)cc(Br)c1O	99.5
CC(O)C(=O)O.CC(O)C(=O)O.CN1CCN(c2ccc3nc(-c4c(N)c5c(F)cccc5[nH]c4=O)[nH]c3c2)CC1	91.1
CNC(=O)c1c(F)cccc1Nc1nc(Nc2cc3c(cc2OC)CCN3C(=O)CN(C)C)nc2[nH]ccc12 [GSK1838705A, reference compound]	70.4
C#Cc1cccc(Nc2ncnc3cc(OCCOC)c(OCCO)cc23)c1 [Desmethyl Erlotinib (CP-473420)]	100.0
C#Cc1cccc(Nc2ncnc3cc(OCCOC)c(OCCO)cc23)c1 [OSI-420 (Desmethyl Erlotinib)]	117.2

Any idea what cell viability, 501Mel XP, 1μΜ came out for O=C(NOCC1CC1)c1ccc(F)c(F)c1Nc1ccc(I)cc1Cl on 501Mel-XP cells (Vemurafenib-resistant)? 81.0

Any idea what cell viability, 501Mel XP, 1μΜ came out for COc1cc2ncnc(Nc3ccc(O)c(Br)c3)c2cc1OC on 501Mel-XP cells (Vemurafenib-resistant)? 89.8
